Protocol Description: CHI Log D procedure
Type: physicochemical
Measurement Context: pH 7.4, CHI Log D
Observable: chromatographic logD

Compound: CC(=O)N1CCC[C@]12CC=CCCCC1(CCCC=CCCCOC(=O)N3CC[C@@](C(=O)N[C@@H](Cc4ccccc4Cl)C(=O)N[C@@H](Cc4csc5ccccc45)C(=O)N[C@@H](CCC(N)=O)C(N)=O)(C3)NC(=O)[C@H](CC(N)=O)NC(=O)[C@H](Cc3ccccc3)NC(=O)[C@H](C)NC(=O)[C@H](C)NC(=O)[C@H](CN(CC(=O)O)CC(F)(F)F)NC(=O)[C@H](CC(=O)O)NC1=O)NC(=O)[C@H](CC(C)(C)C)NC(=O)[C@H](CC(=O)O)NC2=O (some centres unmarked)
Measured: 2.26
//
Compound: CC(=O)N1CCC[C@]12CC=CCCCC1(CCCC=CCCCOC(=O)N3CC[C@@](C(=O)N[C@@H](Cc4ccsc4)C(=O)N[C@@H](Cc4csc5ccccc45)C(=O)N[C@@H](CCC(N)=O)C(N)=O)(C3)NC(=O)[C@H](CC(C)C)NC(=O)[C@H](Cc3ccccc3)NC(=O)[C@H](C)NC(=O)[C@H](C)NC(=O)[C@H](CC(N)=O)NC(=O)[C@H](CC(=O)O)NC1=O)NC(=O)[C@H](CC(C)(C)C)NC(=O)[C@H](CC(=O)O)NC2=O (some centres unmarked)
Measured: 2.45

====

Protocol Description: Solubility in PBS
Type: physicochemical
Measurement Context: Solubility (uM)
Reported Solubility values for the following molecules.
Observable: Solubility (µM)

Molecule: CC(=O)N1CCC[C@]12CC=CCCCC1(CCCC=CCCCOC(=O)N3CC[C@@](C(=O)N[C@@H](Cc4ccccc4Cl)C(=O)N[C@@H](Cc4csc5ccccc45)C(=O)N[C@@H](C(N)=O)[C@H](C)O)(C3)NC(=O)[C@H](CO)NC(=O)[C@H](Cc3ccccc3)NC(=O)[C@H](C)NC(=O)[C@H](C)NC(=O)[C@H](CC(=O)O)NC(=O)[C@H](CC(=O)O)NC1=O)NC(=O)[C@H](CC(C)(C)C)NC(=O)[C@H](CC(=O)O)NC2=O (some centres unmarked)
Observable: Solubility
Value Units: µM
Measured: 44
//
Molecule: CC(=O)N1CCC[C@]12CC=CCCCC1(CCCC=CCCCOC(=O)N3CC[C@@](C(=O)N[C@@H](Cc4ccccc4Cl)C(=O)N[C@@H](Cc4csc5ccccc45)C(=O)N[C@@H](CCC(N)=O)C(N)=O)(C3)NC(=O)[C@H]([C@@H](C)O)NC(=O)[C@H](Cc3ccccc3)NC(=O)[C@H](C)NC(=O)[C@H](C)NC(=O)[C@H](CC(=O)O)NC(=O)[C@H](CC(=O)O)NC1=O)NC(=O)[C@H](CC1CCCCC1)NC(=O)[C@H](CC(=O)O)NC2=O (some centres unmarked)
Observable: Solubility
Value Units: µM
Measured: 46
//
Molecule: CC(=O)N1CCC[C@]12CC=CCCCC1(CCCC=CCCCOC(=O)N3CC[C@@](C(=O)N[C@@H](Cc4ccccc4Cl)C(=O)N[C@@H](Cc4csc5ccccc45)C(=O)N[C@@H](CO)C(N)=O)(C3)NC(=O)[C@H]([C@@H](C)O)NC(=O)[C@H](Cc3ccccc3)NC(=O)[C@H](C)NC(=O)[C@H](C)NC(=O)[C@H](CC(=O)O)NC(=O)[C@H](CC(=O)O)NC1=O)NC(=O)[C@H](CC(C)(C)C)NC(=O)[C@H](CC(=O)O)NC2=O (some centres unmarked)
Observable: Solubility
Value Units: µM
Measured: 47
//
Molecule: CC(=O)N1CCC[C@]12CC=CCCCC1(CCCC=CCCCCCC[C@@](C)(C(=O)N[C@@H](Cc3ccc(C)cc3)C(=O)N[C@@H](Cc3csc4ccccc34)C(=O)N[C@@H](CCC(N)=O)C(N)=O)NC(=O)[C@H](C)NC(=O)[C@H](Cc3ccccc3)NC(=O)[C@H](C)NC(=O)[C@H](C)NC(=O)[C@H](CC(=O)O)NC(=O)[C@H](CC(=O)O)NC1=O)NC(=O)[C@H](C)NC(=O)[C@H](CC(=O)O)NC2=O (some centres unmarked)
Observable: Solubility
Value Units: µM
Measured: 40
//
Molecule: CC(=O)N1CCC[C@]12CC=CCCCC1(CCCC=CCCCOC(=O)N3CC[C@@](C(=O)N[C@@H](Cc4ccsc4)C(=O)N[C@@H](Cc4csc5ccccc45)C(=O)N[C@@H](CCC(N)=O)C(N)=O)(C3)NC(=O)[C@H](Cc3cccc(C(F)(F)F)c3)NC(=O)[C@H](Cc3ccccc3)NC(=O)[C@H](C)NC(=O)[C@H](C)NC(=O)[C@H](CC(=O)O)NC(=O)[C@H](CC(=O)O)NC1=O)NC(=O)[C@H](CC(C)(C)C)NC(=O)[C@H](CC(=O)O)NC2=O (some centres unmarked)
Observable: Solubility
Value Units: µM
Measured: 17
